Each recorded value in this set is attributed to ChEMBL document CHEMBL4049445.

tested on: MDCK; experiment: Cytotoxicity against MDCK cells assessed as reduction in cell viability after 72 hrs by MTS assay; type: cell-based, Canis lupus familiaris; settings: dog, mdck, 72 h
Consider the following compounds and their measured CC50 readings.
Kindly answer with a numeric value in µM, unit omitted.

Please review the following examples before continuing.
>  <Compound>
C1CC(C23CC4CC(CC(C4)C2)C3)CCN1

>  <CC50, µM>
18

$$$$
>  <Compound>
N=C(N)N1CCC(CC2C3CC4CC(C3)CC2C4)CC1 (stereo unspecified)

>  <CC50, µM>
3.8

$$$$
>  <Compound>
C1CC(CC2C3CC4CC(C3)CC2C4)CCN1 (stereo unspecified)

>  <CC50, µM>
15

$$$$

Endpoint output: CC50 of CN1CCC(CC2C3CC4CC(C3)CC2C4)CC1 (stereo unspecified) . Value? 6.2

Endpoint output: CC50 of N=C(N)N1CCC(C23CC4CC(CC(C4)C2)C3)CC1 . Value? 10

Endpoint output: CC50 of CCN1CCC(C2C3CC4CC(C3)CC2C4)CC1 (stereo unspecified) . Value? 25

---

assay: Antiviral activity against Influenza A virus A//HK/7/87 (H3N2) expressing wild-type M2 proton channel infected in MDCK cells assessed as reduction in viral yield after 24 hrs by RT-qPCR method; assay type: functional, Influenza A virus (A/Hong Kong/7/1987(H3N2))
Measurement Label: EC99

>  <Molecule>
C1CC(C23CC4CC(CC(C4)C2)C3)CCN1

>  <Result>
≥ 1.7 µM

$$$$
>  <Molecule>
OC1(C2CCNCC2)C2CC3CC(C2)CC1C3 (centres undefined)

>  <Result>
76 µM

$$$$
>  <Molecule>
C1CC(CC2C3CC4CC(C3)CC2C4)CCN1 (centres undefined)

>  <Result>
> 2 µM

$$$$
>  <Molecule>
C(=C1C2CC3CC(C2)CC1C3)C1CCNCC1

>  <Result>
> 10 µM

$$$$
>  <Molecule>
NC12CC3CC(CC(C3)C1)C2

>  <Result>
0.51 µM

$$$$

Endpoint output: EC99 of CCN1CCC(C2C3CC4CC(C3)CC2C4)CC1 (centres undefined) . Value? > 10 µM

Endpoint output: EC99 of N=C(N)N1CCC(C=C2C3CC4CC(C3)CC2C4)CC1 . Value? > 2 µM

Endpoint output: EC99 of N=C(N)N1CCC(CC2C3CC4CC(C3)CC2C4)CC1 (centres undefined) . Value? > 2 µM

---

assay: Antiviral activity against Influenza A virus (A2 Japan/305/57) H2N2 infected in MDCK cells assessed as reduction of virus-induced cytopathic effect after 4 to 5 days by MTS assay; type: functional, cell-based, Influenza A virus (A/Japan/305/1957(H2N2))
Measurement Label: pEC50
FYI, pEC50 means -log10 of a concentration in mol per litre.

Endpoint output: pEC50 of C1CCC(C23CC4CC(CC(C4)C2)C3)NC1 (stereo unspecified) . Value? 5.48

---

tested on: MDCK; test: Cytotoxicity against MDCK cells assessed as reduction in cell viability after 72 hrs by MTS assay; format: cell-based, Canis lupus familiaris; conditions: dog, mdck, 72 h
Measurement Label: CC50

Please review the following examples before continuing.
>  <Compound>
OC1(C2CCNCC2)C2CC3CC(C2)CC1C3 (stereo not given)

>  <CC50>
> 100 µM

$$$$
>  <Compound>
C1CCC(C23CC4CC(CC(C4)C2)C3)NC1 (stereo not given)

>  <CC50>
> 100 µM

$$$$

Endpoint output: CC50 of C1CC(C2C3CC4CC(C3)CC2C4)CCN1 (stereo not given) . Value? > 100 µM

Endpoint output: CC50 of OC1(CC2CCNCC2)C2CC3CC(C2)CC1C3 (stereo not given) . Value? > 50 µM

Endpoint output: CC50 of CC(N)C12CC3CC(CC(C3)C1)C2 (stereo not given) . Value? > 500 µM

---

Consider the following compounds and their measured EC99 readings.
assay: Antiviral activity against Influenza A virus A//HK/7/87 (H3N2) expressing wild-type M2 proton channel infected in MDCK cells assessed as reduction in viral yield after 24 hrs by RT-qPCR method; format: functional, Influenza A virus (A/Hong Kong/7/1987(H3N2))

Please review the following examples before continuing.
>  <Compound>
C1CCC(C23CC4CC(CC(C4)C2)C3)NC1 (stereo unspecified)

>  <EC99>
3.5 µM

$$$$
>  <Compound>
N=C(N)N1CCC(C23CC4CC(CC(C4)C2)C3)CC1

>  <EC99>
> 2 µM

$$$$
>  <Compound>
C1CC(C2C3CC4CC(C3)CC2C4)CCN1 (stereo unspecified)

>  <EC99>
≥ 50 µM

$$$$

Endpoint output: EC99 of OC1(CC2CCNCC2)C2CC3CC(C2)CC1C3 (stereo unspecified) . Value? > 50 µM

Endpoint output: EC99 of CC(N)C12CC3CC(CC(C3)C1)C2 (stereo unspecified) . Value? 1.1 µM

Endpoint output: EC99 of CN1CCC(CC2C3CC4CC(C3)CC2C4)CC1 (stereo unspecified) . Value? > 2 µM
